targetOfAssay: B2 bradykinin receptor (Oryctolagus cuniculus)
Sequence (Q28642 whole entry): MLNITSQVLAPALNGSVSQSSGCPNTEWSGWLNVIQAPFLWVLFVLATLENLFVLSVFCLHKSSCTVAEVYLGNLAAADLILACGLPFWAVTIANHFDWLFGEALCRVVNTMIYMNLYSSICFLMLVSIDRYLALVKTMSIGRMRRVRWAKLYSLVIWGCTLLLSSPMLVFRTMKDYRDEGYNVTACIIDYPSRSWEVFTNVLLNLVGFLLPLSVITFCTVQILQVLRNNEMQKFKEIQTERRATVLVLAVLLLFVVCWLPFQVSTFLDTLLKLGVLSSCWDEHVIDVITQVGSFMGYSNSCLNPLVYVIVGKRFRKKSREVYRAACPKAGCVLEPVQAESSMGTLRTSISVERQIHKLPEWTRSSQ
experimentalDetails: In vitro antagonistic activity against kinin-induced rabbit jugular vein contraction.
Type: functional
statedConditions: read-out: pA2 (converted)
Numbered stars: 1 amine (or outer) side, 2 acyl side, 3 side chain; on linkers, the order of the positions; unused ones are H or OH. Square brackets hold non-standard residues; d marks the D form. Peptide text beside a SMILES is read from it. * marks the point of attachment. ξ: configuration not given here. Pentanoyl(5-guanidino) = NC(N)=NCCCCC(=O)*; Oic(3aξ,7aξ) = O=C(O)[C@@H]1CC2CCCCC2N1; NH(CH2)9CO = O=C(CCCCCCCCCN[*:1])[*:2]; Tic = O=C(O)[C@@H]1Cc2ccccc2CN1; 2Thi = N[C@@H](Cc1cccs1)C(=O)O; GABA = NCCCC(=O)O
reportedMetric: Kb (nM)
Only the number, expressed in nM, is required.

What is its Kb for B2 bradykinin receptor (Oryctolagus cuniculus)? Entry: N=C(N)NCCCCC(=O)N[C@@H](Cc1cccs1)C(=O)N1Cc2ccccc2C[C@H]1C(=O)N1C2CCCCC2C[C@H]1C(=O)N[C@@H](CCCNC(=N)N)C(=O)O (some centres not stated) ({Pentanoyl(5-guanidino)}-[2Thi][Tic][Oic(3aξ,7aξ)]R-OH)
3020

What is its Kb for B2 bradykinin receptor (Oryctolagus cuniculus)? Entry: N=C(N)NCCC[C@@H]1NC(=O)[C@@H]2CC3CCCCC3N2C(=O)[C@H]2Cc3ccccc3CN2C(=O)[C@H](CO)NC(=O)[C@@H]2Cc3ccccc3CN2C(=O)CCCNC1=O (some centres not stated)
437

What is its Kb for B2 bradykinin receptor (Oryctolagus cuniculus)? Entry: N=C(N)NCCC[C@@H]1NC(=O)[C@@H]2CC3CCCCC3N2C(=O)[C@H]2Cc3ccccc3CN2C(=O)[C@H](Cc2cccs2)NC(=O)CCCNC1=O (some centres not stated)
324

What is its Kb for B2 bradykinin receptor (Oryctolagus cuniculus)? Entry: C[C@@H]1NC(=O)[C@H](Cc2c[nH]c3ccccc23)NC(=O)CCCNC(=O)[C@H](CCCN=C(N)N)NC(=O)[C@@H]2CC3CCCCC3N2C(=O)[C@H]2Cc3ccccc3CN2C1=O (some centres not stated)
490

What is its Kb for B2 bradykinin receptor (Oryctolagus cuniculus)? Entry: N=C(N)NCCC[C@@H]1NC(=O)[C@H](CCCNC(=N)N)NC(=O)[C@@H]2CC3CCCCC3N2C(=O)[C@H]2Cc3ccccc3CN2C(=O)[C@H](Cc2cccs2)NC1=O (some centres not stated)
75.9

What is its Kb for B2 bradykinin receptor (Oryctolagus cuniculus)? Entry: NCCCCCCCCCC(=O)N[C@@H](Cc1cccs1)C(=O)N1Cc2ccccc2C[C@H]1C(=O)N1C2CCCCC2C[C@H]1C(=O)N[C@@H](CCCN=C(N)N)C(=O)O (some centres not stated) ({NH(CH2)9CO}-[2Thi][Tic][Oic(3aξ,7aξ)]R-OH)
468

What is its Kb for B2 bradykinin receptor (Oryctolagus cuniculus)? Entry: NCCCC(=O)N[C@@H](Cc1ccccc1)C(=O)N1Cc2ccccc2C[C@H]1C(=O)N1C2CCCCC2C[C@H]1C(=O)N[C@@H](CCCN=C(N)N)C(=O)O (some centres not stated) (H-[GABA]F[Tic][Oic(3aξ,7aξ)]R-OH)
363
